We begin with a simple list: items and their reported activity, negative = inhibition.
molecular target: Cytochrome P450 3A4 (Homo sapiens) (UniProt P08684); test: Cytochrome panel assay with activity outcomes; conditions: recombinant CYP, pro-luciferin dealkylation, luminescence, p450-cyp3a4; series mostly up to 57.1 µM; as to activity, negative = inhibition: % is scaled to controls: 0 for no effect and ±100 for the full control effect
Sequence (P08684 whole entry, looked up): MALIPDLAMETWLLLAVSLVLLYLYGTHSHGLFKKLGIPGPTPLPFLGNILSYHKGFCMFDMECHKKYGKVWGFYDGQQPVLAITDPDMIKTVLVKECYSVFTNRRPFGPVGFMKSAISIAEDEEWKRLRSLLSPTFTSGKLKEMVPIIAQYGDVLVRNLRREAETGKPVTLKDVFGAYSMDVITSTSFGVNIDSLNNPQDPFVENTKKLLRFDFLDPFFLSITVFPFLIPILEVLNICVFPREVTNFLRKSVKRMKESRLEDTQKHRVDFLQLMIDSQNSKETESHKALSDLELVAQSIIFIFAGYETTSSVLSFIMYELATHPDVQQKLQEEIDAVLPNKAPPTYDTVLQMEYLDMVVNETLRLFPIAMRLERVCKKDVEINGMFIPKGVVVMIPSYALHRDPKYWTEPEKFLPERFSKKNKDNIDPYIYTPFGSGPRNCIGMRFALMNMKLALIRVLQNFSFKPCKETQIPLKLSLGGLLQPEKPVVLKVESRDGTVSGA
The whole screen tested about 16,000 compounds, of which about 5,100 (32%) were called active. Inconclusive results (about 25%) are left out. Some of the results follow.

Solved entries:
CC1CCN(CC[S-])CC1.O.O.[Cl][Pt]    -1.49% [at 11.4 µM] (inactive)
Clc1ccccc1C(Nc1cnccn1)Nc1cnccn1    -4.71% [at 11.4 µM] (inactive)
CC(C)C(=O)N[C@H]1CCCN1C(=O)/C=C\c1ccccc1    -20.7% [at 11.4 µM] (inactive)
Cc1ccc(NC(=O)CCC(=O)NNC(=O)c2cccs2)c(C)c1    -1.38% [at 2.29 µM] (inactive)
Cc1ccc(NC(=O)CCC(=O)NNS(=O)(=O)c2ccccc2)c(C)c1    21.8% [at 2.29 µM] (inactive)

Request: Need activity, negative = inhibition, item Cc1onc(-c2c(F)cccc2Cl)c1C(=O)N[C@@H]1C(=O)N2[C@H]1SC(C)(C)[C@H]2C(=O)O
Response: -13.2% [at 11.4 µM] (inactive)

Request: # iterate: c1cncc(CNc2ncn[nH]2)c1
Response: -14.4% [at 11.4 µM] (inactive)

Request: Let us now turn to CC(=O)Nc1ccc(-c2cc(-c3ccc(NC(C)=O)cc3)nc(-c3ccccc3)n2)cc1
Response: -4.31% [at 2.29 µM] (inactive)

* * *

molecular target: Cytochrome P450 3A4 (Homo sapiens); assay: Cytochrome panel assay with activity outcomes; details: recombinant CYP, pro-luciferin dealkylation, luminescence, p450-cyp3a4; series mostly up to 57.1 µM
About 5,100 (32%) of roughly 16,000 compounds were called active. Not shown: some 25% with an inconclusive outcome. The call rests on the fitted dose curve; in most records, active means well fitted curve in the direction sought with a large enough effect; inconclusive means small, poorly fitted or top-dose-only effect, or effect the other way; inactive means no such curve, though single readings can be large or run the other way. The list shows a part of the results.
Field 'call' accepts Y = active, N = inactive

Answered examples (2):
CCN(CC)CCOC(=O)c1ccc(N)cc1    N
CN(C)CCn1nnnc1SCC1=C(C(=O)O)N2C(=O)[C@@H](NC(=O)Cc3csc(N)n3)[C@@H]2SC1    N

Request: Write down the call the test reported for this compound. Item: O=c1oc2cc(Oc3c([N+](=O)[O-])cc(C(F)(F)F)cc3[N+](=O)[O-])ccc2c2c1CCCC2
Response: Y

Request: Another: O=C(O)[C@H]1CN[C@H](C(=O)O)C1
Response: N

Request: // query: CCCN(CCC)S(=O)(=O)c1ccc(C(=O)O)cc1
Response: N

Request: Same question, CNc1nc(NCCOC23CC4CC(CC(C4)C2)C3)nc(OCC(F)(F)F)n1 this time
Response: Y

Request: Cool, now Cc1ccc(Nc2c([N+](=O)[O-])ccc3c2=NC2(CCCCC2)N=3)cc1
Response: Y

Request: What do we get for CCN(CC)S(=O)(=O)c1cc(C(=O)Nc2ccncc2)ccc1Cl ?
Response: Y

Request: Now the compound COCC(=O)N1CCC2(CC1)CCN(C(=O)Nc1cccc(F)c1)CC2
Response: N

Request: COc1ccc(S(=O)(=O)N2CCN(CC(=O)Nc3cccc(F)c3)CC2)cc1
Response: Y

Data provenance is PubChem BioAssay AID1851.
